- Test system: Hepatotoxicity
- SETTINGS: Liver
Give measured HepSE_cholecystitis for each item. Keep answers brief.
One number for each entry.

CC(C)(C)NCC(O)c1ccc(O)c(CO)c1 (stereo not given) :: 0
Brc1c(NC2=NCCN2)ccc2nccnc12 :: 0
CC(C)C[C@H](NC(=O)[C@H](Cc1ccccc1)NC(=O)c1cnccn1)B(O)O :: 0
O=C(O)c1cc(-c2ccc(F)cc2F)ccc1O :: 0
CCCN[C@H]1CCc2nc(N)sc2C1 [PRAMIPEXOLE] :: 1

# per-item lookup of HepSE_cholecystitis; items listed below
1. CN(C)CCOC(c1ccccc1)c1ccccc1 [DIPHENHYDRAMINE]
2. N[C@@H]1C[C@H]1c1ccccc1.N[C@H]1C[C@@H]1c1ccccc1
3. CCCc1cc(=O)[nH]c(=S)[nH]1
4. CCc1cc(C(N)=S)ccn1 [ETHIONAMIDE]
5. NC[C@@H]1O[C@H](O[C@H]2[C@@H](O)[C@H](O[C@@H]3[C@@H](O)[C@H](N)C[C@H](N)[C@H]3O[C@H]3O[C@H](CN)[C@@H](O)[C@H](O)[C@H]3N)O[C@@H]2CO)[C@H](N)[C@@H](O)[C@@H]1O
6. NCCc1ccc(O)c(O)c1

[0, 0, 0, 0, 0, 0]

# per-item lookup of HepSE_cholecystitis; items listed below
1. CC(=O)[C@@]1(O)CC[C@H]2[C@@H]3C[C@H](C)C4=CC(=O)CC[C@]4(C)[C@H]3CC[C@@]21C
2. OCC(S)CS (stereo not given)
3. Cc1ccc(-c2cc(C(F)(F)F)nn2-c2ccc(S(N)(=O)=O)cc2)cc1
4. CC1(C)NC(=O)N(c2ccc([N+](=O)[O-])c(C(F)(F)F)c2)C1=O [NILUTAMIDE]
5. O=P1(N(CCCl)CCCl)NCCCO1 (stereo not given) [CYCLOPHOSPHAMIDE ANHYDROUS]
6. CC(=O)O[C@H]1C(=O)[C@@]2(C)[C@H]([C@H](OC(=O)c3ccccc3)[C@]3(O)C[C@H](OC(=O)[C@H](O)[C@@H](NC(=O)c4ccccc4)c4ccccc4)C(C)=C1C3(C)C)[C@]1(OC(C)=O)CO[C@@H]1C[C@@H]2O
7. CN(C/C=C/c1ccccc1)Cc1cccc2ccccc12
8. CNCC[C@H](Oc1cccc2ccccc12)c1cccs1

1. 0
2. 0
3. 0
4. 0
5. 0
6. 0
7. 0
8. 0

---

The next entries give measured HepSE_liver function tests abnormal for Hepatotoxicity.
Give bare numbers.

O=C1Nc2ccc(Cl)cc2C(c2ccccc2Cl)=NC1O (stereo unspecified) :: 1
CC(C)C[C@H](NC(=O)[C@@H](COC(C)(C)C)NC(=O)[C@H](Cc1ccc(O)cc1)NC(=O)[C@H](CO)NC(=O)[C@H](Cc1c[nH]c2ccccc12)NC(=O)[C@H](Cc1cnc[nH]1)NC(=O)[C@@H]1CCC(=O)N1)C(=O)N[C@@H](CCCNC(=N)N)C(=O)N1CCC[C@H]1C(=O)NNC(N)=O :: 0
CC(=O)/N=c1/sc(S(N)(=O)=O)nn1C [METHAZOLAMIDE] :: 0
COCc1c(C(C)C)nc(C(C)C)c(/C=C/[C@@H](O)C[C@@H](O)CC(=O)O)c1-c1ccc(F)cc1 :: 0
CC1Cc2ccccc2N1NC(=O)c1ccc(Cl)c(S(N)(=O)=O)c1 (stereo unspecified) [INDAPAMIDE] :: 1
CC(=O)NS(=O)(=O)c1ccc(N)cc1 [SULFACETAMIDE] :: 0
Cc1ccc(C)c(OCCCC(C)(C)C(=O)O)c1 :: 1
CCCCC[C@H](O)/C=C/[C@H]1[C@H](O)CC(=O)[C@@H]1C/C=C\CCCC(=O)O :: 0
CCN(CC)CC#CCOC(=O)C(O)(c1ccccc1)C1CCCCC1 (stereo unspecified) :: 1
Cc1ccc(S(=O)(=O)NC(=O)NN2CCCCCC2)cc1 [TOLAZAMIDE] :: 0

# per-item lookup of HepSE_liver function tests abnormal; items listed below
1. CC(=O)OCC(=O)[C@@]12OC3(CCCC3)O[C@@H]1C[C@H]1[C@@H]3CCC4=CC(=O)C=C[C@]4(C)[C@@]3(F)[C@@H](O)C[C@@]12C [AMCINONIDE]
2. C=CCC1(C(C)CCC)C(=O)NC(=O)NC1=O (stereo unspecified)
3. C=CCN1CC[C@]23c4c5ccc(O)c4O[C@H]2C(=O)CC[C@@]3(O)[C@H]1C5
4. C#C[C@]1(O)CC[C@H]2[C@@H]3CCC4=Cc5oncc5C[C@]4(C)[C@H]3CC[C@@]21C
5. CC1=NS(=O)(=O)c2cc(Cl)ccc2N1 [DIAZOXIDE]
6. CCCCCOC(=O)Nc1nc(=O)n([C@@H]2O[C@H](C)[C@@H](O)[C@H]2O)cc1F

[0, 0, 0, 0, 0, 1]

---

The next entries give measured HepSE_liver disease for Hepatotoxicity.
*1 amine or outer side, *2 acyl side, *3 side chain or, on linkers, in order; H or OH if unused. Where a SMILES comes first, the peptide text is derived from it. Bridges are numbered along the chain shown (N, C = ends). [ ]: non-standard residue; d: D form. The star is where a group is joined. ξ: configuration not given here. X2 = N=C1NCCC([C@H](N[*:1])C(=O)[*:2])N1; ΔAla(Z-3-ureido) = NC(=O)N/C=C(\N)C(=O)O; ξβ3hOrn = NCCCC(N)CC(=O)*; Dap = NC[C@H](N)C(=O)O
Give bare numbers.

Past entries and their recorded results:
CC(C)C(=O)Nc1ccc([N+](=O)[O-])c(C(F)(F)F)c1 [FLUTAMIDE] :: 0
CC1(C)O[C@@H]2[C@@H](CO[C@@]3(COS(N)(=O)=O)OC(C)(C)O[C@@H]23)O1 [TOPIRAMATE] :: 0
CCN[C@H]1C[C@H](C)S(=O)(=O)c2sc(S(N)(=O)=O)cc21 [DORZOLAMIDE] :: 0
O=C(O)CCc1nc(-c2ccccc2)c(-c2ccccc2)o1 :: 0
C[C@@H]1NC(=O)[C@@H](N)CNC(=O)[C@H](C2CCNC(=N)N2)NC(=O)/C(=C/NC(N)=O)NC(=O)[C@H](CNC(=O)CC(N)CCCN)NC1=O.N=C1NCCC([C@@H]2NC(=O)/C(=C/NC(N)=O)NC(=O)[C@H](CNC(=O)CC(N)CCCN)NC(=O)[C@H](CO)NC(=O)[C@@H](N)CNC2=O)N1 (stereo partly drawn) [CAPREOMYCIN] (H-[Dap]S[Dap](ξβ3hOrn)[ΔAla(Z-3-ureido)][X2]; lactam 1-C) :: 1

Item under review: Clc1ccc(CSC(Cn2ccnc2)c2ccc(Cl)cc2Cl)cc1 (stereo unspecified) . Reported HepSE_liver disease?
0

---

- Test system: Hepatotoxicity
Give measured HepSE_jaundice for each item. Keep answers brief.

Past entries and their recorded results:
C=CCC1(C(C)CCC)C(=O)NC(=O)NC1=O (stereo not given) [SECOBARBITAL] :: 0
COc1cccc2c1C(=O)c1c(O)c3c(c(O)c1C2=O)C[C@@](O)(C(C)=O)C[C@@H]3O[C@H]1C[C@H](N)[C@H](O)[C@H](C)O1 [DAUNORUBICIN] :: 0
Cc1ccsc1C(=CCCN1CCC[C@@H](C(=O)O)C1)c1sccc1C [TIAGABINE] :: 0
CC[C@H]1OC(=O)[C@H](C)[C@@H](O[C@H]2C[C@@](C)(OC)[C@@H](O)[C@H](C)O2)[C@H](C)[C@@H](O[C@@H]2O[C@H](C)C[C@H](N(C)C)[C@H]2O)[C@](C)(OC)C[C@@H](C)C(=O)[C@H](C)[C@@H](O)[C@]1(C)O [CLARITHROMYCIN] :: 1

Item under review: CN1CCN(C(=O)OC2c3nccnc3C(=O)N2c2ccc(Cl)cn2)CC1 (stereo not given) [ZOPICLONE] . Reported HepSE_jaundice?
0

---

- Test system: Hepatotoxicity
PARAMETER_MEASURED: HepSE_Combined Scores
Give bare numbers.

Past entries and their recorded results:
CC(C)NCC(O)COc1cccc2[nH]ccc12 (stereo unspecified) :: 0
c1ccc2c(CC3=NCCN3)cccc2c1 :: 0
NCC(=O)CCC(=O)O :: 0

# per-item lookup of HepSE_Combined Scores; items listed below
1. CCCc1nn(C)c2c(=O)[nH]c(-c3cc(S(=O)(=O)N4CCN(C)CC4)ccc3OCC)nc12
2. CO/N=C(\C(=O)N[C@@H]1C(=O)N2C(C(=O)O)=CCS[C@H]12)c1csc(N)n1
3. CC[C@@H](C(N)=O)N1CCCC1=O
4. O=C1CN=C(c2ccccc2)c2cc([N+](=O)[O-])ccc2N1
5. CCN[C@H]1C[C@H](C)S(=O)(=O)c2sc(S(N)(=O)=O)cc21 [DORZOLAMIDE]
6. CN1C(CSCC(F)(F)F)Nc2cc(Cl)c(S(N)(=O)=O)cc2S1(=O)=O (stereo unspecified) [POLYTHIAZIDE]
7. Cc1ccc(C(=O)c2ccc(CC(=O)O)n2C)cc1
8. CCC1(c2ccccc2)C(=O)NCNC1=O

1
0
2
0
1
1
1
0

# per-item lookup of HepSE_Combined Scores; items listed below
1. COc1cc2nc(N(C)CCCNC(=O)C3CCCO3)nc(N)c2cc1OC (stereo unspecified)
2. COc1ccc(CC2c3cc(OC)c(OC)cc3CC[N+]2(C)CCC(=O)OCCCCCOC(=O)CC[N+]2(C)CCc3cc(OC)c(OC)cc3C2Cc2ccc(OC)c(OC)c2)cc1OC (stereo unspecified)
3. O=C1CC2(CCCC2)CC(=O)N1CCCCN1CCN(c2ncccn2)CC1

1. 2
2. 0
3. 0

# per-item lookup of HepSE_Combined Scores; items listed below
1. O=C(CCCCC(=O)Nc1c(I)cc(I)c(C(=O)O)c1I)Nc1c(I)cc(I)c(C(=O)O)c1I [IODIPAMIDE]
2. [Ca+2].[H-].[H-]
3. CCCCC[C@H](O)CC[C@@H]1[C@H]2Cc3cccc(OCC(=O)O)c3C[C@H]2C[C@H]1O
4. COCC1=C(C(=O)O)N2C(=O)[C@@H](NC(=O)/C(=N\OC)c3csc(N)n3)[C@H]2SC1
5. [H]/N=C(\N/C(=N/[H])NCCCCCCNC(=N)NC(=N)Nc1ccc(Cl)cc1)Nc1ccc(Cl)cc1
6. CN1CCCC(n2nc(Cc3ccc(Cl)cc3)c3ccccc3c2=O)CC1 (stereo unspecified)

1. 0
2. 0
3. 0
4. 0
5. 0
6. 0

# per-item lookup of HepSE_Combined Scores; items listed below
1. CCCCC[C@H](O)/C=C/[C@H]1[C@H](O)CC(=O)[C@@H]1C/C=C\CCCC(=O)O
2. CC[C@H]1OC(=O)[C@H](C)[C@@H](O[C@H]2C[C@@](C)(OC)[C@@H](O)[C@H](C)O2)[C@H](C)[C@@H](O[C@@H]2O[C@H](C)C[C@H](N(C)C)[C@H]2O)[C@](C)(O)C[C@@H](C)CN(C)[C@H](C)[C@@H](O)[C@]1(C)O
3. CC(=O)N(CC(O)CO)c1c(I)c(C(=O)NCC(O)CO)c(I)c(C(=O)NCC(O)CO)c1I (stereo unspecified) [IOHEXOL]
4. Clc1ccc(C(Cn2ccnc2)OCc2csc3c(Cl)cccc23)c(Cl)c1 (stereo unspecified)
5. CN1CCN(CCCN2c3ccccc3Sc3ccc(Cl)cc32)CC1

1: 0; 2: 5; 3: 0; 4: 0; 5: 1

Item under review: `CC1=C(C/C=C(\C)CCC[C@H](C)CCC[C@H](C)CCCC(C)C)C(=O)c2ccccc2C1=O` . Reported HepSE_Combined Scores?
1

This collection of values is drawn from ChEMBL document CHEMBL1909294.
